test system: Tobacco Budworm 3rd Instar; assay: Tobacco budworm secondary test, third-instar larvae on treated cotton cotyledons; format: in vivo, Heliothis virescens (Fabricus); settings: 1000 ppm
A collection of compounds and their measured Mortality Rating Tobacco Budworm 3rd Instar

CCN(CC)C(=O)N(N=Cc1ccc(OC(F)(F)C(F)F)cc1)C(=N)NN=Cc1ccc(OC(F)(F)C(F)F)cc1 [HCF2 CF2 O / HCF2 CF2 O / C2 H5 / C2 H5] :: 5 (56-65%)
C=CCOC(=O)N(N=Cc1ccc(C(F)(F)F)cc1)C(=N)NN=Cc1ccc(C(F)(F)F)cc1 [CF3 / CF3 / CH2CHCH2] :: 0 (No effect)
N=C(NN=Cc1ccc(OC(F)F)cc1)NN=Cc1ccc(OC(F)F)cc1 [HCF2 O / S] :: 0 (No effect)
CCC(C)OC(=O)N(N=Cc1ccc(OC(F)(F)F)cc1)C(=N)NN=Cc1ccc(OC(F)(F)F)cc1 (centres unmarked) [CF3 O / CF3 O / drawing 55] :: 8 (86-99%)
N=C(NN=Cc1ccc(C(F)(F)F)cc1)N(N=Cc1ccc(C(F)(F)F)cc1)C(=O)OCC(Cl)(Cl)Cl [CF3 / CF3 / Cl3 CCH2] :: 8 (86-99%)
CCOC(=O)N(N=Cc1ccc(SC(F)F)cc1)C(=N)NN=Cc1ccc(SC(F)F)cc1 [HCF2 S / HCF2 s / C2 H5] :: 0 (No effect)
N=C(NN=Cc1ccc(Cl)cc1)NN=Cc1ccc(Cl)cc1 [Cl / HNO3] :: 0 (No effect)
CNC(=O)N(N=Cc1ccc(C(F)(F)F)cc1)C(=N)NN=Cc1ccc(C(F)(F)F)cc1 [CF3 / CF3 / CH3 / H] :: 6 (66-75%)

Using the record for N=C(NN=Cc1ccc(OC(F)(F)F)cc1)N(N=Cc1ccc(OC(F)(F)F)cc1)C(=O)OCC(Cl)(Cl)Cl [CF3 O / CF3 O / Cl3 CCH2] , report its Mortality Rating Tobacco Budworm 3rd Instar. 0 (No effect)

Using the record for CCCOC(=O)N(N=Cc1ccc(SC(F)F)cc1)C(=N)NN=Cc1ccc(OC(F)F)cc1 [HCF2 S / HCF2 O / -n-C3 H7] , report its Mortality Rating Tobacco Budworm 3rd Instar. 0 (No effect)

Using the record for N=C(NN=Cc1ccc(OC(F)(F)C(F)F)cc1)N(N=Cc1ccc(OC(F)(F)C(F)F)cc1)C(=O)N1CCCC1 [HCF2 CF2 O / HCF2 CF2 O / (CH2)4] , report its Mortality Rating Tobacco Budworm 3rd Instar. 3 (36-45%)

Using the record for N=C(NN=Cc1ccc(OC(F)(F)C(Cl)Cl)cc1)NN=Cc1ccc(OC(F)(F)C(Cl)Cl)cc1 [HCCl2 CF2 O / B] , report its Mortality Rating Tobacco Budworm 3rd Instar. 4 (46-55%)

Using the record for N=C(NN=Cc1ccc2c(c1)OC(F)C(F)(F)O2)NN=Cc1ccc2c(c1)OC(F)C(F)(F)O2 (centres unmarked) [drawing 47 / B] , report its Mortality Rating Tobacco Budworm 3rd Instar. 0 (No effect)

Using the record for N=C(NN=Cc1ccc(OC(F)(F)F)cc1)N(N=Cc1ccc(OC(F)(F)F)cc1)C(=O)OCCCl [CF3 O / CF3 O / ClCH2 CH2] , report its Mortality Rating Tobacco Budworm 3rd Instar. 8 (86-99%)

* * *

tested on: Tobacco Budworm 3rd Instar; experiment: Tobacco budworm secondary test, third-instar larvae on treated cotton cotyledons; type: in vivo, Heliothis virescens (Fabricus); details: 1000 ppm
Endpoint Label: Mortality Rating Tobacco Budworm 3rd Instar

Worked examples follow.
CNC(=O)N(N=Cc1ccc(OC(F)F)cc1)C(=N)NN=Cc1ccc(OC(F)F)cc1 :: 0 (No effect)
CCN(CC)C(=O)N(N=Cc1ccc(OC(F)(F)F)cc1)C(=N)NN=Cc1ccc(OC(F)(F)F)cc1 :: 8 (86-99%)
CN(C)C(=O)N(N=Cc1ccc(F)cc1)C(=N)NN=Cc1ccc(F)cc1 :: 0 (No effect)

Shifting focus to the compound that follows.
Using the record for N=C(NN=Cc1ccc(Cl)cc1)NN=Cc1ccc(OC(F)(F)C(F)F)cc1 [Cl / HCF2 CF2 O / B] , report its Mortality Rating Tobacco Budworm 3rd Instar. 0 (No effect)

* * *

system: Tobacco Budworm 3rd Instar; assay: Tobacco budworm secondary test, third-instar larvae on treated cotton cotyledons; type: in vivo, Heliothis virescens (Fabricus); settings: 1000 ppm
Where a name gives a salt, the structure may show the parent alone.
Endpoint Label: Mortality Rating Tobacco Budworm 3rd Instar

Worked examples follow.
CNC(=O)N(N=Cc1ccc(OC(F)(F)C(F)F)cc1)C(=N)NN=Cc1ccc(OC(F)(F)C(F)F)cc1 [HCF2 CF2 O / HCF2 CF2 O / CH3 / H] :: 4 (46-55%)
N=C(NN=Cc1ccc(C(F)(F)F)cc1)NN=Cc1ccc(C(F)(F)F)cc1 [CF3 / HCl] :: 5 (56-65%)
N=C(NN=Cc1ccc(SC(F)F)cc1)NN=Cc1ccc(SC(F)F)cc1 [HCF2 S / B] :: 0 (No effect)

Shifting focus to the molecule that follows.
Using the record for CC(C)OC(=O)N(N=Cc1ccc(SC(F)(F)C(F)F)cc1)C(=N)NN=Cc1ccc(SC(F)(F)C(F)F)cc1 [HCF2 CF2 S / HCF2 CF2 S / -i-C3 H7] , report its Mortality Rating Tobacco Budworm 3rd Instar. 5 (56-65%)

* * *

A collection of compounds and their measured Mortality Rating Tobacco Budworm 3rd Instar
tested on: Tobacco Budworm 3rd Instar; assay: Tobacco budworm secondary test, third-instar larvae on treated cotton cotyledons; format: in vivo, Heliothis virescens (Fabricus); details: 1000 ppm
Where a name gives a salt, the structure may show the parent alone.

Worked examples follow.
CN(C)C(=O)N(N=Cc1ccc(Br)cc1)C(=N)NN=Cc1ccc(Br)cc1 :: 2 (26-35%)
N=C(NN=Cc1ccc(OC(F)(F)C(F)Cl)cc1)NN=Cc1ccc(OC(F)(F)C(F)Cl)cc1 (centres unmarked) [drawing 44 / S] :: 9 (100%)
N=C(NN=Cc1ccc(OC(F)(F)C(F)F)cc1)NN=Cc1ccc(C(F)(F)F)cc1 :: 3 (36-45%)
N=C(NN=Cc1ccc(OC(F)(F)C(F)F)cc1)NN=Cc1ccc(OC(F)(F)C(F)F)cc1 :: 9 (100%)
CC(C)OC(=O)N(N=Cc1ccc2c(c1)OC(F)C(F)(F)O2)C(=N)NN=Cc1ccc2c(c1)OC(F)C(F)(F)O2 (centres unmarked) [drawing 52 / drawing 53 / -i-C3 H7] :: 0 (No effect)
N=C(NN=Cc1ccc(Cl)cc1)NN=Cc1ccc(Cl)cc1 [Cl / Base] :: 0 (No effect)

Using the record for N=C(NN=Cc1ccc(Br)cc1)NN=Cc1ccc(C(F)(F)F)cc1 [CF3 / Br / HCl] , report its Mortality Rating Tobacco Budworm 3rd Instar. 0 (No effect)

* * *

A collection of molecules and their measured Mortality Rating Tobacco Budworm 3rd Instar
tested on: Tobacco Budworm 3rd Instar; experiment: Tobacco budworm secondary test, third-instar larvae on treated cotton cotyledons; format: in vivo, Heliothis virescens (Fabricus); conditions: 1000 ppm
Counter-ions that a name gives are not always drawn.

Please tell me: Mortality Rating Tobacco Budworm 3rd Instar of N=C(NN=Cc1ccc(Cl)cc1)NN=Cc1ccc(Cl)cc1 [Cl / HCl] , system Tobacco Budworm 3rd Instar? 0 (No effect)

Please tell me: Mortality Rating Tobacco Budworm 3rd Instar of CC1(C)Oc2ccc(C=NNC(=N)NN=Cc3ccc4c(c3)OC(C)(C)O4)cc2O1 [drawing 45 / S] , system Tobacco Budworm 3rd Instar? 0 (No effect)

Please tell me: Mortality Rating Tobacco Budworm 3rd Instar of N=C(NN=Cc1ccc(OC(F)(F)C(Cl)Cl)cc1)NN=Cc1ccc(OC(F)(F)C(Cl)Cl)cc1 [HCCL2 CF2 O / S] , system Tobacco Budworm 3rd Instar? 5 (56-65%)

* * *

A collection of compounds and their measured Mortality Rating Tobacco Budworm 3rd Instar
system: Tobacco Budworm 3rd Instar; assay: Tobacco budworm secondary test, third-instar larvae on treated cotton cotyledons; assay type: in vivo, Heliothis virescens (Fabricus); conditions: 1000 ppm

CCNC(=O)N(N=Cc1ccc(OC(F)(F)C(F)F)cc1)C(=N)NN=Cc1ccc(OC(F)(F)C(F)F)cc1 :: 4 (46-55%)
N=C(NN=Cc1ccc(OC(F)F)cc1)NN=Cc1ccc(OC(F)F)cc1 [HCF2 O / B] :: 0 (No effect)
N=C(NN=Cc1ccc(OC(F)(F)C(F)Cl)cc1)NN=Cc1ccc(OC(F)(F)C(F)Cl)cc1 (stereo not shown) [drawing 43 / B] :: 9 (100%)
CCOC(=O)N(N=Cc1ccc(OC(F)F)cc1)C(=N)NN=Cc1ccc(OC(F)F)cc1 :: 2 (26-35%)
CC(C)OC(=O)N(N=Cc1ccc(OC(F)(F)C(Cl)Cl)cc1)C(=N)NN=Cc1ccc(OC(F)(F)C(Cl)Cl)cc1 :: 0 (No effect)
N=C(NN=Cc1ccc2c(c1)OC(F)(F)O2)NN=Cc1ccc2c(c1)OC(F)(F)O2 [drawing 46 / S] :: 0 (No effect)
N=C(NN=Cc1ccc(Br)cc1)NN=Cc1ccc(C(F)(F)F)cc1 [CF3 / Br / B] :: 0 (No effect)
N=C(NN=Cc1ccc(SC(F)F)cc1)N(N=Cc1ccc(SC(F)F)cc1)C(=O)OCCCl :: 0 (No effect)

Using the record for CN(C)C(=O)N(N=Cc1ccc(OC(F)F)cc1)C(=N)NN=Cc1ccc(OC(F)F)cc1 , report its Mortality Rating Tobacco Budworm 3rd Instar. 0 (No effect)

Using the record for CC(C)OC(=O)N(N=Cc1ccc(C(F)(F)F)cc1)C(=N)NN=Cc1ccc(C(F)(F)F)cc1 , report its Mortality Rating Tobacco Budworm 3rd Instar. 3 (36-45%)

Using the record for COC(=O)N(N=Cc1ccc(C(F)(F)F)cc1)C(=N)NN=Cc1ccc(C(F)(F)F)cc1 , report its Mortality Rating Tobacco Budworm 3rd Instar. 6 (66-75%)

Using the record for CN(C)C(=O)N(N=Cc1ccc(OC(F)(F)C(F)F)cc1)C(=N)NN=Cc1ccc(OC(F)(F)C(F)F)cc1 , report its Mortality Rating Tobacco Budworm 3rd Instar. 8 (86-99%)

Using the record for N=C(NN=Cc1ccc(C(F)(F)F)cc1)NN=Cc1ccc(C(F)(F)F)cc1 [CF3 / B] , report its Mortality Rating Tobacco Budworm 3rd Instar. 8 (86-99%)
